Entry source: patent US11453660B2

assay-system: AR-Receptor (Homo sapiens, UniProt P10275)
Sequence (P10275 1-920 Q868H): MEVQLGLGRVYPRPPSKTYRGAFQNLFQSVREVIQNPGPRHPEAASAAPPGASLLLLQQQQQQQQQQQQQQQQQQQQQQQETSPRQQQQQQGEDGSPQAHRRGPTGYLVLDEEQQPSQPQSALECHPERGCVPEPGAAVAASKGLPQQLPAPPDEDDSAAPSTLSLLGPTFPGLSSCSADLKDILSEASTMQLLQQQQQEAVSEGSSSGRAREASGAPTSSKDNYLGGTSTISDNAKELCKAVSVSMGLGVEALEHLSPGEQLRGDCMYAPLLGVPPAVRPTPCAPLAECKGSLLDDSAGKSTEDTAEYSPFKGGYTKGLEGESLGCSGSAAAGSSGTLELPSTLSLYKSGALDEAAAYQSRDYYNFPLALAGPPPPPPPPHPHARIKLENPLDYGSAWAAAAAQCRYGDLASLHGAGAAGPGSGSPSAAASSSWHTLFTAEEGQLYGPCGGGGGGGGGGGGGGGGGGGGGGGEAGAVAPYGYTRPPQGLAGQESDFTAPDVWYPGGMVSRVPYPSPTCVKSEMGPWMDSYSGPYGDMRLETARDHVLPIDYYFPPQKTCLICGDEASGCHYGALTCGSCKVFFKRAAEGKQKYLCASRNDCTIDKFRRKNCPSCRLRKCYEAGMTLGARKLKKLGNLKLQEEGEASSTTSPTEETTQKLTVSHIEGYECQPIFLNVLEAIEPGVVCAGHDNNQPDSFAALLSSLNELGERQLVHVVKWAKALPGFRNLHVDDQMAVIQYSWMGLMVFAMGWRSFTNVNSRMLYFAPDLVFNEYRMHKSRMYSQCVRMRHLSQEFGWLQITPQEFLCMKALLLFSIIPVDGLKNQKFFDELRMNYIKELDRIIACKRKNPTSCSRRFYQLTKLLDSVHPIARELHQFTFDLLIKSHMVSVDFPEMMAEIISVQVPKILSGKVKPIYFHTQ
assay-name: Functional Assay AR-Receptor (MDA-MB-453 cells, luciferase)
Type: cell-based
stated-conditions: antagonist effect in the presence of DHT 1 nM, 24 h, luciferase luminescence, read-out: AR antag KB
endpoint-label: Kb

Example compounds with recorded Kb:
> print(dat)
                                   compound       obs.value
1  CC(=O)C1=C(C)NC(C2CC2)=C(C(=O)OCc2ccc(C#N)cc2)C1c1csc2ncccc12 (stereo not shown)  100 to 1000 nM
2  CC(=O)C1=C(C)NC(C)=C(C(=O)OCc2cncc(-c3ccncc3)c2)C1c1csc2ncccc12 (stereo not shown)       ≥ 1000 nM
3  CC(=O)C1=C(C)NC(C)=C(C(=O)OC(C)(C)c2ccccc2)C1c1csc2ncccc12 (stereo not shown)       ≥ 1000 nM

Let's switch to this compound now.
The compound COC(=O)C1=C(C2CC2)NC(C)=C(C(C)=O)C1c1csc2c(Br)cccc12 (stereo not shown) on AR-Receptor (Homo sapiens, UniProt P10275): Kb was 100 to 1000 nM
